Target Entity: ROCK2 (Homo sapiens (Human), UniProt O75116)
Sequence (O75116 whole entry, species assumed): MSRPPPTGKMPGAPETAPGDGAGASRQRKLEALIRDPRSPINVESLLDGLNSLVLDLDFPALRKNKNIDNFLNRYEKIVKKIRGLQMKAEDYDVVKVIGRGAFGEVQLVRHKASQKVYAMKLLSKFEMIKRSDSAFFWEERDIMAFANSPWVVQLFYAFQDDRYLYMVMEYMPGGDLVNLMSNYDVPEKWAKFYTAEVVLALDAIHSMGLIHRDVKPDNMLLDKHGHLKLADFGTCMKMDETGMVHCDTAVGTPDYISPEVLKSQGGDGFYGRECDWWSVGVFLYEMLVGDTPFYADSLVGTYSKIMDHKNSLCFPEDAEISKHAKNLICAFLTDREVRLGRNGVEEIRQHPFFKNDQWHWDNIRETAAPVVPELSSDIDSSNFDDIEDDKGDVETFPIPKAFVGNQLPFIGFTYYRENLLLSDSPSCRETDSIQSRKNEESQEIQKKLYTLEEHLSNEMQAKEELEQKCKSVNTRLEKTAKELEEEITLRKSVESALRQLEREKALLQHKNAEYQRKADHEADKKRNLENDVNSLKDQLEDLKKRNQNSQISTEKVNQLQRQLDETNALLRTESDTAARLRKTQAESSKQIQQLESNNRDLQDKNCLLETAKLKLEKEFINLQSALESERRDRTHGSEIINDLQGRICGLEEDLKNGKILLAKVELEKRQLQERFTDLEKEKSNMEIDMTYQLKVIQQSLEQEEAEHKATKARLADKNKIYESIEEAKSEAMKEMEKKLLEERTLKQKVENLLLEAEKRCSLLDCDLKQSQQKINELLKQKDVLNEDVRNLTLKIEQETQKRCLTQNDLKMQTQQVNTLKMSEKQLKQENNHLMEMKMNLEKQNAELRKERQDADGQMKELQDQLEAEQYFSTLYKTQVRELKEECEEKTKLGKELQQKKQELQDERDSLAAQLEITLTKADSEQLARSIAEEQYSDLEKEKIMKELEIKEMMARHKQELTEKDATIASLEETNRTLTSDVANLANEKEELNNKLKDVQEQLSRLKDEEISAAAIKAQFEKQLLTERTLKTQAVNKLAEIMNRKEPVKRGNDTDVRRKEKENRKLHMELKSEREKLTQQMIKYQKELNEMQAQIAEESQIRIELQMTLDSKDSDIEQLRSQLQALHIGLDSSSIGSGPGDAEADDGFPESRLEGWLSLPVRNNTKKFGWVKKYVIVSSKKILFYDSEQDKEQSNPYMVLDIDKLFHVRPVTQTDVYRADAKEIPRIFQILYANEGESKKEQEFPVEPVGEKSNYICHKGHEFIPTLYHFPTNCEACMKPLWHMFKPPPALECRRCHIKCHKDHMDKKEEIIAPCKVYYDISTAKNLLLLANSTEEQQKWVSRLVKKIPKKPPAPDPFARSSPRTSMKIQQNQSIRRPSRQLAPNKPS
Assay: biochemical

Molecule | Target Entity | IC50
Cc1cccc(OC2CCN(c3ccc(-c4cn[nH]c4)cc3)C2=O)c1 (stereo not shown) | ROCK2 (Homo sapiens (Human), UniProt O75116) | 0.1 to 2.2 µM
CCOc1cccc(NC2CCN(c3ccc(-c4cn[nH]c4)c(OC)n3)C2=O)c1 (single isomer, unassigned) | ROCK2 (Homo sapiens (Human), UniProt O75116) | < 0.01 µM
COc1cccc(NC2CCN(c3ccc(-c4cn[nH]c4)c(Cl)c3)C2=O)c1 (single isomer, unassigned) [Example 164] | ROCK2 (Homo sapiens (Human), UniProt O75116) | < 0.01 µM
COc1cccc(OC2CCN(c3ccc(-c4cn[nH]c4)c(OC)n3)C2=O)c1 (single isomer, unassigned) [Example 170] | ROCK2 (Homo sapiens (Human), UniProt O75116) | 0.01 to 0.1 µM
COc1ccc(F)cc1NC1CCN(c2ccc(-c3cn[nH]c3)cc2)C1=O (stereo not shown) | ROCK2 (Homo sapiens (Human), UniProt O75116) | 0.01 to 0.1 µM
COc1nc(N2CCC(Nc3cccc(NS(C)(=O)=O)c3)C2=O)ccc1-c1cn[nH]c1 (racemic) | ROCK2 (Homo sapiens (Human), UniProt O75116) | 0.01 to 0.1 µM
CCOc1cccc(NC2CCN(c3ccc(-c4cn[nH]c4)c(OC)c3)C2=O)c1 (single isomer, unassigned) [Example 249] | ROCK2 (Homo sapiens (Human), UniProt O75116) | 0.01 to 0.1 µM

====

Target Entity: ROCK2 (Homo sapiens (Human));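 further: rho kinase enzyme reaction halted with EDTA, phospho- and non-phospho peptide separated for read-out, kinase activity inhibition derived across a dose-response series, DMSO under 2%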
Assay: biochemical
IC50 reference
Measured Metric: IC50

Compound | Target Entity | Measured Metric | Test Value
Cc1cc(N2CCC(Nc3cccc(OCC4CC4)c3)C2=O)ncc1-c1cn[nH]c1 (single isomer, unassigned) [Example 206] | ROCK2 (Homo sapiens (Human)) | IC50 | 100 to 2200 nM
COc1nc(N2CCC(Nc3ccc4ncsc4c3)C2=O)ccc1-c1cn[nH]c1 (racemic) [Example 259] | ROCK2 (Homo sapiens (Human)) | IC50 | < 10 nM
COc1cccc(NC2CCN(c3ccc(-c4cn[nH]c4)c(C(N)=O)c3)C2=O)c1 (single isomer, unassigned) [Example 130] | ROCK2 (Homo sapiens (Human)) | IC50 | 100 to 2200 nM
CCOc1cc(N2CCC(Nc3cc(F)cc(OC)c3)C2=O)ccc1-c1cn[nH]c1 (single isomer, unassigned) [Example 37] | ROCK2 (Homo sapiens (Human)) | IC50 | 100 to 2200 nM
COc1cccc(NC2CCN(c3ccc(-c4cn[nH]c4)c(C4CC4)c3)C2=O)c1 (single isomer, unassigned) [Example 363] | ROCK2 (Homo sapiens (Human)) | IC50 | 10 to 100 nM
COc1cc(F)cc(NC2CCN(c3cc(F)c(-c4cn[nH]c4)cc3F)C2=O)c1 (single isomer, unassigned) [Example 351] | ROCK2 (Homo sapiens (Human)) | IC50 | 10 to 100 nM
COc1cccc(NC2CCN(c3ccc(-c4cn[nH]c4)c(C#N)c3)C2=O)c1 (single isomer, unassigned) [Example 378] | ROCK2 (Homo sapiens (Human)) | IC50 | 10 to 100 nM
COc1cc(NC2CCN(c3ccc(-c4cn[nH]c4)cn3)C2=O)ccc1F (single isomer, unassigned) [Example 83] | ROCK2 (Homo sapiens (Human)) | IC50 | 10 to 100 nM
COc1cccc(NC2CCN(c3ccc(-c4cn[nH]c4)c(C(F)F)c3)C2=O)c1 (single isomer, unassigned) [Example 176] | ROCK2 (Homo sapiens (Human)) | IC50 | 10 to 100 nM
COc1nc(N2CCC(Nc3cccc(OC(C)C)c3)C2=O)ccc1-c1cn[nH]c1 (racemic) [Example 267] | ROCK2 (Homo sapiens (Human)) | IC50 | 10 to 100 nM
COc1cccc(N(C)C2CCN(c3ccc(-c4cn[nH]c4)cc3)C2=O)c1 (single isomer, unassigned) [Example 30] | ROCK2 (Homo sapiens (Human)) | IC50 | 10 to 100 nM
COc1cc(F)cc(NC2CCN(c3ccc(-c4cn[nH]c4)cc3F)C2=O)c1 (single isomer, unassigned) [Example 338] | ROCK2 (Homo sapiens (Human)) | IC50 | 10 to 100 nM
COc1cccc(NC2CCN(c3ccc(-c4ccnc(F)c4)c(OC)n3)C2=O)c1 (racemic) [Example 127] | ROCK2 (Homo sapiens (Human)) | IC50 | 10 to 100 nM
COc1cc(F)cc(NC2CCN(c3ccc(-c4cn[nH]c4)c(C)n3)C2=O)c1 (single isomer, unassigned) [Example 193] | ROCK2 (Homo sapiens (Human)) | IC50 | < 10 nM
COc1cccc(NC2CCN(c3ccc(-c4cn[nH]c4)c(C#N)c3)C2=O)c1 (single isomer, unassigned) [Example 377] | ROCK2 (Homo sapiens (Human)) | IC50 | 100 to 2200 nM
Cc1cccc(NC2CCN(c3ccc(-c4cn[nH]c4)cc3)C2=O)c1 (stereo not drawn) [Example 2] | ROCK2 (Homo sapiens (Human)) | IC50 | 10 to 100 nM
O=C1C(Nc2cccc(OCC3CC3)c2)CCN1c1ccc(-c2cn[nH]c2)cc1 (single isomer, unassigned) [Example 233] | ROCK2 (Homo sapiens (Human)) | IC50 | 10 to 100 nM
CCc1cc(N2CCC(Nc3cccc(OCC4CC4)c3)C2=O)ccc1-c1cn[nH]c1 (single isomer, unassigned) [Example 248] | ROCK2 (Homo sapiens (Human)) | IC50 | 100 to 2200 nM
CCOc1cccc(NC2CCN(c3ccc(-c4cn[nH]c4)c(OC)c3)C2=O)c1 (single isomer, unassigned) [Example 250] | ROCK2 (Homo sapiens (Human)) | IC50 | < 10 nM
O=C1C(c2ccccc2Cl)CCN1c1ccc(-c2cn[nH]c2)cc1 (stereo not drawn) [Example 105] | ROCK2 (Homo sapiens (Human)) | IC50 | 10 to 100 nM
O=C1C(Nc2cnccn2)CCN1c1ccc(-c2cn[nH]c2)cc1 (racemic) [Example 226] | ROCK2 (Homo sapiens (Human)) | IC50 | 10 to 100 nM
COc1cc(F)cc(NC2CCN(c3ccc(-c4cn[nH]c4)c(Cl)c3)C2=O)c1 (single isomer, unassigned) [Example 158] | ROCK2 (Homo sapiens (Human)) | IC50 | 100 to 2200 nM
COc1cccc(NC2CCN(c3ccc(-c4cn[nH]c4)c(C(F)F)c3)C2=O)c1 (single isomer, unassigned) [Example 175] | ROCK2 (Homo sapiens (Human)) | IC50 | 100 to 2200 nM
COc1cc(NC2CCN(c3ccc(-c4cn[nH]c4)c(C(F)F)c3)C2=O)ccc1F (single isomer, unassigned) [Example 179] | ROCK2 (Homo sapiens (Human)) | IC50 | 10 to 100 nM
COc1nc(N2CCC(Nc3ccc(F)c(OCC4CC4)c3)C2=O)ccc1-c1cn[nH]c1 (single isomer, unassigned) [Example 217] | ROCK2 (Homo sapiens (Human)) | IC50 | 10 to 100 nM
COc1cccc(NC2CCN(c3ccc(-c4ccncc4F)c(C)n3)C2=O)c1 (single isomer, unassigned) [Example 121] | ROCK2 (Homo sapiens (Human)) | IC50 | 100 to 2200 nM
O=C1[C@H](Nc2ccc3c(c2)CS(=O)(=O)C3)CCN1c1ccc(-c2cn[nH]c2)cc1 [Example 392] | ROCK2 (Homo sapiens (Human)) | IC50 | 100 to 2200 nM
